- system-tested: AChE (from electrophorus electricus) (Electrophorus electricus, UniProt O42275)
- Construct: purchased Merck or Aldrich
- Sequence (O42275 24-633): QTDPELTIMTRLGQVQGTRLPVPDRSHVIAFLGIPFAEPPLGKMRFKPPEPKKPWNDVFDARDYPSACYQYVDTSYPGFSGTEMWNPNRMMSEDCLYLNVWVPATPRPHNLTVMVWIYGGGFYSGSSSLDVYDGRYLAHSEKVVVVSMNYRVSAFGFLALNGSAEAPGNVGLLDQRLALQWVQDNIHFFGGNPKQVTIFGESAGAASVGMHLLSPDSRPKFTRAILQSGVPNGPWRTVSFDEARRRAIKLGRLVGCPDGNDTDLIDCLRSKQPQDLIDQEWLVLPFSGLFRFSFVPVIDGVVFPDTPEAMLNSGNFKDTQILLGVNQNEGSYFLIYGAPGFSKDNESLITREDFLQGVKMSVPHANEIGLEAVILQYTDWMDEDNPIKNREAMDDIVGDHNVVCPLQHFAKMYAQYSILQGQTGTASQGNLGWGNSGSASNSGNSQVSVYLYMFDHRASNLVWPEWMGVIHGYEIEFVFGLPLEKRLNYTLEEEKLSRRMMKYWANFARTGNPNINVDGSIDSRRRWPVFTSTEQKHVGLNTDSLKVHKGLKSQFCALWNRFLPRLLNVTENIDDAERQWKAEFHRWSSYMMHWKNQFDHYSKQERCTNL
- method: Cholinesterase inhibition assay (Ellman's method), AChE
- Assay type: biochemical
- test-settings: test concentration not given
Think of 40% as a floor: if ee AChE %inhib. stands on it or above, it is YES; beneath it, NO.

{"chem-smiles": "COc1cccc2cc(-c3ccc(OCc4cn(Cc5cccc(F)c5)nn4)cc3)c(=O)oc12", "group": "NO"}
{"chem-smiles": "O=c1oc2ccccc2cc1-c1ccc(OCc2cn(Cc3ccccc3Cl)nn2)cc1", "group": "NO"}
{"chem-smiles": "COc1cccc2cc(-c3ccc(OCc4cn(Cc5ccccc5[N+](=O)[O-])nn4)cc3)c(=O)oc12", "group": "NO"}
{"chem-smiles": "COc1cccc(Cn2cc(COc3ccc(-c4cc5ccccc5oc4=O)cc3)nn2)c1", "group": "NO"}
{"chem-smiles": "Cc1cccc(Cn2cc(COc3ccc(-c4cc5ccccc5oc4=O)cc3)nn2)c1", "group": "NO"}
{"chem-smiles": "COc1cccc2cc(-c3ccc(OCc4cn(Cc5ccc(Cl)cc5)nn4)cc3)c(=O)oc12", "group": "YES"}
{"chem-smiles": "O=c1oc2ccccc2cc1-c1ccc(OCc2cn(Cc3ccc(Cl)cc3)nn2)cc1", "group": "YES"}
{"chem-smiles": "O=c1oc2ccc([N+](=O)[O-])cc2cc1-c1ccc(OCc2cn(Cc3ccccc3F)nn2)cc1", "group": "NO"}
{"chem-smiles": "O=c1oc2ccccc2cc1-c1ccc(OCc2cn(Cc3cccc(F)c3)nn2)cc1", "group": "NO"}
{"chem-smiles": "COc1cccc2cc(-c3ccc(OCc4cn(Cc5ccc(F)cc5)nn4)cc3)c(=O)oc12", "group": "NO"}
{"chem-smiles": "O=c1oc2ccccc2cc1-c1ccc(OCc2cn(Cc3ccccc3[N+](=O)[O-])nn2)cc1", "group": "NO"}
{"chem-smiles": "COc1cccc2cc(-c3ccc(OCc4cn(Cc5ccccc5F)nn4)cc3)c(=O)oc12", "group": "NO"}
{"chem-smiles": "O=c1oc2ccccc2cc1-c1ccc(OCc2cn(Cc3cccc([N+](=O)[O-])c3)nn2)cc1", "group": "YES"}
{"chem-smiles": "O=c1oc2ccc(Br)cc2cc1-c1ccc(OCc2cn(Cc3ccccc3F)nn2)cc1", "group": "YES"}
{"chem-smiles": "O=c1oc2ccccc2cc1-c1ccc(OCc2cn(Cc3ccc(Br)cc3)nn2)cc1", "group": "NO"}
{"chem-smiles": "O=c1oc2ccccc2cc1-c1ccc(OCc2cn(Cc3ccc(F)cc3)nn2)cc1", "group": "NO"}
{"chem-smiles": "O=c1oc2ccc([N+](=O)[O-])cc2cc1-c1ccc(OCc2cn(Cc3ccccc3)nn2)cc1", "group": "YES"}
{"chem-smiles": "O=c1oc2ccccc2cc1-c1ccc(OCc2cn(Cc3ccccc3F)nn2)cc1", "group": "NO"}
{"chem-smiles": "COc1cccc2cc(-c3ccc(OCc4cn(Cc5ccccc5)nn4)cc3)c(=O)oc12", "group": "YES"}
{"chem-smiles": "O=c1oc2ccc(Br)cc2cc1-c1ccc(OCc2cn(Cc3ccc(Br)cc3)nn2)cc1", "group": "NO"}
{"chem-smiles": "O=c1oc2ccccc2cc1-c1ccc(OCc2cn(Cc3ccccc3)nn2)cc1", "group": "NO"}
{"chem-smiles": "COc1ccc(Cn2cc(COc3ccc(-c4cc5ccccc5oc4=O)cc3)nn2)cc1", "group": "NO"}
{"chem-smiles": "O=c1oc2ccccc2cc1-c1ccc(OCc2cn(Cc3ccc([N+](=O)[O-])cc3)nn2)cc1", "group": "NO"}
